Assignment: determine reported MIC for the given compounds.
Test system: Streptococcus agalactiae CMX 508
Assay: In vitro antibacterial activity, agar dilution MIC
Format: cell-based
Conditions: CMX508, S. agalactiae CMX 508, Brain Heart Infusion agar, 20-24 hours, read-out: MIC
Form entry: value (µg/mL) — number only.

Could you tell me which MIC is on file for CC[C@H]1OC(=O)[C@H](C)[C@@H](O[C@H]2C[C@@](C)(OC)[C@@H](O)[C@H](C)O2)[C@H](C)[C@@H](O[C@@H]2O[C@H](C)C[C@H](N(C)C)[C@H]2O)[C@](C)(O)C[C@@H](C)[C@@H](N2CCCCCC2)[C@H](C)[C@@H](O)[C@]1(C)O [Example 2] ?
0.05

Could you tell me which MIC is on file for CC[C@H]1OC(=O)[C@H](C)[C@@H](O[C@H]2C[C@@](C)(OC)[C@@H](O)[C@H](C)O2)[C@H](C)[C@@H](O[C@@H]2O[C@H](C)C[C@H](N(C)C)[C@H]2O)[C@](C)(O)C[C@@H](C)[C@@H](N2CCCC(C)(C)C2)[C@H](C)[C@@H](O)[C@]1(C)O [Example 1] ?
0.1

Could you tell me which MIC is on file for CC[C@H]1OC(=O)[C@H](C)[C@@H](O[C@H]2C[C@@](C)(OC)[C@H](N)[C@H](C)O2)[C@H](C)[C@@H](O[C@@H]2O[C@H](C)C[C@H](N(C)C)[C@H]2O)[C@](C)(O)C[C@@H](C)[C@@H](N2CCCCC2)[C@H](C)[C@@H](O)[C@]1(C)O [Example 32] ?
0.1

---

Assignment: determine reported MIC for the given compounds.
System: Enterococcus faecium ATCC 8043
Experiment: In vitro antibacterial activity, agar dilution MIC
Format: cell-based
Settings: ATCC8043, E. faecium ATCC 8043, Brain Heart Infusion agar, 20-24 hours, read-out: MIC
Form entry: value (µg/mL) — number only.

Could you tell me which MIC is on file for CC[C@H]1OC(=O)[C@H](C)[C@@H](O[C@H]2C[C@@](C)(OC)[C@@H](O)[C@H](C)O2)[C@H](C)[C@@H](O[C@@H]2O[C@H](C)C[C@H](N(C)C)[C@H]2O)[C@](C)(O)C[C@@H](C)[C@@H](N2CCCCCC2)[C@H](C)[C@@H](O)[C@]1(C)O ?
0.02

Could you tell me which MIC is on file for CC[C@H]1OC(=O)[C@H](C)[C@@H](O[C@H]2C[C@@](C)(OC)[C@@H](O)[C@H](C)O2)[C@H](C)[C@@H](O[C@@H]2O[C@H](C)C[C@H](N(C)C)[C@H]2O)[C@](C)(O)C[C@@H](C)[C@@H](N2CCCCC2)[C@H](C)[C@@H](O)[C@]1(C)O ?
0.1

Could you tell me which MIC is on file for CC[C@H]1OC(=O)[C@H](C)[C@@H](O[C@H]2C[C@@](C)(OC)[C@@H](O)[C@H](C)O2)[C@H](C)[C@@H](O[C@@H]2O[C@H](C)C[C@H](N(C)C)[C@H]2O)[C@](C)(O)C[C@@H](C)[C@@H](N2CCS(=O)(=O)CC2)[C@H](C)[C@@H](O)[C@]1(C)O ?
1.56

Could you tell me which MIC is on file for CC[C@H]1OC(=O)[C@H](C)[C@@H](O[C@H]2C[C@@](C)(OC)[C@@H](O)[C@H](C)O2)[C@H](C)[C@@H](O[C@@H]2O[C@H](C)C[C@H](N(C)C)[C@H]2O)[C@](C)(O)C[C@@H](C)[C@@H](N2CCN(C(=O)OCc3ccccc3)CC2)[C@H](C)[C@@H](O)[C@]1(C)O ?
0.39
